- Test system: OVCAR-5 ovarian
- procedure-text: NCI-60 one-dose screen, 48 h
- condition-context: 10 µM
The panel holds about 83,000 compounds, 20% with a hit somewhere; the sample as a whole holds those more often. Activity calls are given as the source filed them. How the source made its calls: active means growth percent below 10; inactive means the rest. Where a SMILES comes first, the peptide text is derived from it. Bridges are numbered along the chain shown (N, C = ends). [ ]: non-standard residue; d: D form. The star is where a group is joined. ξ: configuration not given here. ξNMePhe(4-NMe2) = CNC(Cc1ccc(N(C)C)cc1)C(=O)O; Picolinoyl(3-OH) = O=C(c1ncccc1O)*; ξPip(4-oxo) = O=C1CCNC(C(=O)O)C1; Phg = N[CH](C(=O)O)c1ccccc1; Abu = CC[CH](N)C(=O)O
Field 'call' accepts active, inactive

Inquiry: Record request — test call for O=C1c2ccccc2C(=O)c2c1ccc(C(=O)O)c2[N+](=O)[O-]
Reply text: inactive

Inquiry: Then what about the compound NC(=O)NC(=O)c1ccc(Cl)cc1 ?
Reply text: inactive

Inquiry: Then what about the compound COc1cc(OC)c2ccc(=O)oc2c1 ?
Reply text: inactive

Inquiry: Then what about the compound CCC1NC(=O)C(NC(=O)c2ncccc2O)C(C)OC(=O)C(c2ccccc2)NC(=O)C2CC(=O)CCN2C(=O)C(Cc2ccc(N(C)C)cc2)N(C)C(=O)C2CCCN2C1=O (centres undefined) (tested in a mixture with another compound) ({Picolinoyl(3-OH)}-T[Abu]P[ξNMePhe(4-NMe2)][ξPip(4-oxo)][Phg]; ester 1-C; configuration not given here) ?
Reply text: active

Inquiry: Then what about the compound COc1ccc(C(=O)C(Br)C(Br)C(=O)O)cc1 (centres undefined) ?
Reply text: inactive

Inquiry: Then what about the compound COc1cc2c(cc1O)CC[C@@H]1C2CC[C@@]2(C)C1CC[C@@H]2O (some centres undefined) ?
Reply text: active

Inquiry: Then what about the compound O=C(/C=C\c1ccc(O)cc1)c1ccccc1 ?
Reply text: inactive

Inquiry: Then what about the compound NCC(=O)CCC(=O)O ?
Reply text: inactive

Inquiry: Then what about the compound CC1CCCCN1C(=S)Nc1ccc(S(=O)(=O)N2CCCCC2)cc1 (centres undefined) ?
Reply text: inactive
